Just for reference, PubChem BioAssay (NCI) is where these values come from.

Test: NCI Yeast Anticancer Drug Screen. Data for the wt1 strain (AID 149);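 note: 0% = growth of vehicle-treated wt1 cultures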
Settings: S. cerevisiae wt1 strain (SPY 50644) growth inhibition; at 11.0 µM; stronger effect = higher value
Compounds without any hit were thinned out: in the full panel of roughly 79,000, 15% have a hit. Residues, ends and D or L forms follow the SMILES beside them. *: point of attachment. Fmoc = O=C(OCC1c2ccccc2-c2ccccc21)*; Boc = CC(C)(C)OC(=O)*

[
  {
    "compound": "COc1ccc(N=c2cc(-c3ccccc3)oc3ccccc23)cc1",
    "growth inhibition (%)": 2
  },
  {
    "compound": "Nc1cccc(-c2cc[cH-]c2)c1.[Fe+2].c1cc[cH-]c1",
    "growth inhibition (%)": -3
  },
  {
    "compound": "O=C1c2ccccc2-c2ccc(N=Cc3ccccc3)cc21",
    "growth inhibition (%)": 14
  },
  {
    "compound": "CCc1c(Cl)c(C)c(Cl)c(O)c1Cl",
    "growth inhibition (%)": 1
  },
  {
    "compound": "Cc1nc2sc3c(c2c(=O)o1)CCCC3",
    "growth inhibition (%)": 1
  },
  {
    "compound": "COC(=O)C(=O)c1c(-c2ccc(Cl)c(Cl)c2)[nH]c2[nH]n(-c3ccccc3)c(=O)c2c1=O",
    "growth inhibition (%)": 24
  },
  {
    "compound": "Cc1c(Cl)c(C)c(Cl)c(O)c1Cl",
    "growth inhibition (%)": 13
  },
  {
    "compound": "CC(C)OC(=O)NNc1cccc(Cl)c1",
    "growth inhibition (%)": 35
  },
  {
    "compound": "CC(=O)N1C=Cc2c(c(C)c3c([nH]c4ccccc43)c2C)C1",
    "growth inhibition (%)": 82
  },
  {
    "compound": "Nc1ccc(N=Nc2ccc(-c3ccc(O)cc3)cc2)c2ccc(S(=O)(=O)O)cc12",
    "growth inhibition (%)": 6
  },
  {
    "compound": "CO[C@@]1([C@@H](Cl)c2ccccc2)C(=O)N(C)/C(=C\\c2ccccc2)C(=O)N1C",
    "growth inhibition (%)": -2
  },
  {
    "compound": "Nc1ccc(S(=O)(=O)Nc2nc3c(c(=O)[nH]2)CCCC3)cc1",
    "growth inhibition (%)": 93
  },
  {
    "compound": "CC(=O)O[C@H]1CC[C@@]2(C)C(=CC[C@@H]3C2CC[C@]2(C)C(=O)NC(=O)CC32)C1 (stereo not given in full)",
    "growth inhibition (%)": -21
  },
  {
    "compound": "NC(=S)N1N=C2c3ccccc3CC[C@@H]2[C@@H]1c1ccccc1",
    "growth inhibition (%)": 2
  },
  {
    "compound": "O=C(O)c1ccc2cc(Cl)c3ccccc3c2c1",
    "growth inhibition (%)": 11
  },
  {
    "compound": "c1ccc(-c2cc(C3CO3)c3ccccc3n2)cc1 (stereo not given)",
    "growth inhibition (%)": -5
  },
  {
    "compound": "CCN(CC)CCC(=O)Nc1ccc2sc3ccccc3c(=O)c2n1",
    "growth inhibition (%)": 1
  },
  {
    "compound": "CC1=CC(=C(c2ccc(N)c(C)c2)c2ccc(N)c(C)c2)C=CC1=N",
    "growth inhibition (%)": 7
  },
  {
    "compound": "CC1(C2CC2)C(C#N)(C#N)C1(C#N)C#N",
    "growth inhibition (%)": 5
  },
  {
    "compound": "CC1=CN2C(c3ccccc3)=NON(c3ccc(C)cn3)C2C=C1 (stereo not given)",
    "growth inhibition (%)": -3
  },
  {
    "compound": "c1ccc2nc3c(nc2c1)sc1ccccc13",
    "growth inhibition (%)": 17
  },
  {
    "compound": "CC(C)OC(=O)NNc1c(Cl)cc(Cl)cc1Cl",
    "growth inhibition (%)": -4
  },
  {
    "compound": "CC(=O)CC(c1ccccc1)c1c(O)c2ccccc2oc1=O (stereo not given)",
    "growth inhibition (%)": -12
  },
  {
    "compound": "O=Cc1ccccc1C=O",
    "growth inhibition (%)": -17
  },
  {
    "compound": "CC(C)(CN1CCCCC1)C(=O)/C=C/c1c(Cl)cccc1Cl",
    "growth inhibition (%)": 32
  },
  {
    "compound": "CN(N=O)C(=O)Nc1ccc(C(=O)O)cc1",
    "growth inhibition (%)": -2
  },
  {
    "compound": "CC(C)=CCC/C(C)=C/CN1C(=O)C=CC1=O",
    "growth inhibition (%)": 100
  },
  {
    "compound": "CN(C)N=Nc1ccc(N(C)C)cc1",
    "growth inhibition (%)": -3
  },
  {
    "compound": "CN(C)CCNC(=Cc1ccc2ccccc2[n+]1C)NCCN(C)C",
    "growth inhibition (%)": -2
  },
  {
    "compound": "CCOP(=O)(OCC)/C(C#N)=C\\c1cccc2ccccc12",
    "growth inhibition (%)": 6
  },
  {
    "compound": "CC(C)(C)OC(=O)NCCCCC(NC(=O)C(Cc1c[nH]c2ccccc12)NC(=O)OCC1c2ccccc2-c2ccccc21)C(=O)O (stereo not given) (Fmoc-Trp-Lys(Boc)-OH; configuration not given here)",
    "growth inhibition (%)": -3
  },
  {
    "compound": "O=[N+]([O-])c1ccc(S(=O)(=O)Cc2ccccc2)c([N+](=O)[O-])c1",
    "growth inhibition (%)": 24
  },
  {
    "compound": "C/C(=N/NC(=S)Nc1ccccc1C)c1ccccn1",
    "growth inhibition (%)": -9
  },
  {
    "compound": "O=[N+]([O-])c1ccc(C(c2c[nH]c3ccccc23)c2c[nH]c3ccccc23)cc1",
    "growth inhibition (%)": 96
  },
  {
    "compound": "CCC(C)(C)c1ccc(Oc2ccccc2)c(N)c1",
    "growth inhibition (%)": 97
  },
  {
    "compound": "O=C1c2cccc3cccc(c23)C(=O)N1CCNCCN1C(=O)c2cccc3cccc(c23)C1=O",
    "growth inhibition (%)": -1
  },
  {
    "compound": "Cc1ccnc2c(O)cccc12",
    "growth inhibition (%)": 76
  },
  {
    "compound": "CSc1nc(-c2ccccc2)nc(=[N+]2CCOCC2)s1",
    "growth inhibition (%)": 23
  },
  {
    "compound": "CC(C)=CCc1c2c(c(O)c3c(=O)c(-c4ccc(O)c(O)c4)coc13)C=CC(C)(C)O2",
    "growth inhibition (%)": 79
  },
  {
    "compound": "O=[N+]([O-])c1ccc2nc(=S)[nH]n2c1",
    "growth inhibition (%)": -7
  },
  {
    "compound": "O=C(NC(N1CCN(c2cc3c(cc2F)c(=O)c(C(=O)O)cn3C2CC2)CC1)(C(F)(F)F)C(F)(F)F)c1ccccc1",
    "growth inhibition (%)": -1
  },
  {
    "compound": "NC(N)=NC(N)=Nc1ccccc1 (tested in a mixture with another compound)",
    "growth inhibition (%)": 0
  },
  {
    "compound": "CC1(C)CC(=O)C(C=NC(=S)C(N)=S)=C(O)C1",
    "growth inhibition (%)": -37
  },
  {
    "compound": "C=CC(C)(C)N1C(=O)C(C(C)=O)=C(O)C1Cc1c[nH]c2ccccc12 (stereo not given)",
    "growth inhibition (%)": 3
  },
  {
    "compound": "CCCCCCCCSC1=C(Cl)C(=O)C(OC)=C(OC)C1=O",
    "growth inhibition (%)": -17
  }
]
